# test-name: Drug cytotoxicity control plate assay (MTT cell proliferation)
# protocol-conditions: mouse, MTT % Viability (High Conc.), high conc., same as in macrophage assay
measured-metric: viability (%)
Give bare numbers, in %.

{"compound": "Cc1cn(CC2CN(c3ccc(N4CCN(C(=O)CNC(=O)c5cc([N+](=O)[O-])cc([N+](=O)[O-])c5)CC4)c(F)c3)C(=O)O2)nn1 (centres unmarked) [PH-181]", "measured-metric": "viability", "measured": 39}

Exercise: Give recorded viability. O=C(NCC(=O)N1CCN(c2ccc(N3CC(Cn4ccnn4)OC3=O)cc2F)CC1)c1cc([N+](=O)[O-])cc([N+](=O)[O-])c1 (centres unmarked) [PH-193]
Solution: 74

* * *

# test-name: Drug cytotoxicity control plate assay (MTT cell proliferation)
# protocol-conditions: mouse, uninfected J774 macrophages, MTT % Viability (Mid Conc.), mid conc., same as in macrophage assay
measured-metric: viability
Put down the number, then write its unit next to it.

Exercise: Give me measured viability, please, for this compound: CO[C@H]1/C=C/O[C@@]2(C)Oc3c(C)c(O)c4c(O)c(c(/C=N/N5CCN(C)CC5)c(O)c4c3C2=O)NC(=O)/C(C)=C\C=C\[C@H](C)[C@H](O)[C@@H](C)[C@@H](O)[C@@H](C)[C@H](OC(C)=O)[C@@H]1C [RMP, Rifampicin, reference compound]
Solution: 85%
